// cross-source set; read-out = pIC50; system = Tyrosine-protein kinase JAK2 (Homo sapiens, UniProt O60674)
pIC50: −log10 of the molar value.

Problem: Can you share its pIC50? I mean this molecule: CCn1c(C(=O)N(C2CC2)C2CC2)cc2c3c(ncn3C)c(Nc3nc(C)c(C(C)=O)s3)nc21
Result: 8.82

Problem: Any idea what pIC50 was measured for N#CCC1(n2cc(-c3ncnc4[nH]ccc34)cn2)CN(C2CCN(C(=O)c3sc(C(F)(F)F)cc3O)CC2)C1 ?
Result: 7.00 to 7.30

Problem: Need pIC50, item N#CCC(C1CCCC1)n1cc(-c2ccnc(Nc3ccc(NC(=O)O[C@@H]4CCOC4)cc3)n2)cn1 (mixture of isomers)
Result: > 7.00

Problem: Report pIC50 for N#CCC(C1CCCC1)n1cc(-c2ccnc(Nc3ccc(NC(=O)CN4CCC(O)CC4)cc3)n2)cn1 (racemic) please.
Result: > 7.00

Problem: I am curious: what pIC50 value has been reported for N#CCC(C1CCOCC1)n1cc(-c2ccnc(Nc3ccc(C(=O)N4CCC(O)CC4)cc3)n2)cn1 (racemic) ?
Result: > 7.00

Problem: Form field: reported pIC50 of CS(=O)(=O)c1cnc(-c2cnc3[nH]ccc3c2N[C@@H]2CCCN(C(=O)CC#N)C2)s1
Result: ≥ 8.00

Problem: # query: pIC50 of entry NC(=O)c1cnc(Nc2ccc3c(c2)NC[C@H](O)CO3)nc1NC1CCOC1 (stereo partly shown)
Result: 7.00 to 8.00

Problem: # input molecule: O=C1NCCCCOCc2cc(ccc2Cl)Nc2nccc(n2)-c2ccc1cc2[N+](=O)[O-] ; wanted: its pIC50
Result: 6.00 to 7.00
